Tested on: NOMO1
Assay: cell viability relative to DMSO control; higher = less cytotoxic
Settings: RPMI 5 mM glucose + 10% dialyzed FBS; 48 h; 15.4 µM
Decide using cell viability alone. Strictly below 80%: t. Equal to or above 80%: f.

CC[C@H]1CN2CCc3cc(OC)c(OC)cc3[C@@H]2C[C@@H]1C[C@H]1NCCc2cc(OC)c(OC)cc21
t
NNc1nncc2ccccc12
f
CCOC(=O)[C@H]1O[C@@H]1C(=O)N[C@@H](CC(C)C)C(=O)NCCC(C)C
f

**Q:** Confirm or reject: cell viability of `N#Cc1ccnc(N2C(=O)CC[C@H]2C(=O)N(c2cncc(F)c2)[C@H](C(=O)NC2CC(F)(F)C2)c2ccccc2Cl)c1` lies strictly below 80%
**A:** t
